Target: human 5-hydroxytryptamine-2C (h5-HT2C) receptor (Homo sapiens, UniProt P28335)
Construct: expressed in transfected cells; host or cells: CHO (Chinese Hamster Ovary) cells; membranes
Sequence (P28335 33-458): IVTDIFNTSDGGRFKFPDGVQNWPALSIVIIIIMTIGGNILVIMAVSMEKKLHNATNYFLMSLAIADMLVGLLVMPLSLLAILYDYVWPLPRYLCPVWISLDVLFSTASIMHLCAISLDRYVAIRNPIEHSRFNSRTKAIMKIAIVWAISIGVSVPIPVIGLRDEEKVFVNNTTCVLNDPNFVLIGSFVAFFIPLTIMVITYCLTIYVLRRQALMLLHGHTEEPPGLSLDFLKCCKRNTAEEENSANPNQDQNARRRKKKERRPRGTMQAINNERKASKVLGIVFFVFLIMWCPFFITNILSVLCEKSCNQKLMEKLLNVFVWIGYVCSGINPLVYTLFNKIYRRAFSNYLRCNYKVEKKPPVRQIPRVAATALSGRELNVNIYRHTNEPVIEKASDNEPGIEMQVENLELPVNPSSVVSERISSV
Test: [125I]DOI binding to membranes of CHO cells expressing the human 5-HT2C receptor
Conditions: [125I]DOI radioligand, CHO cell membranes, room temperature 60 min; read-out: 5-HT2C Affinity Ki
pKi: −log10 of the molar value.
Binning of pKi into classes: bucket A (below 8), bucket B (8 to below 9), bucket C (9 or more)

> print(dat)
                                    molecule  assigned.class
 1  NCC1Cc2cccc(-c3ccccc3C(F)(F)F)c2O1 (single isomer, unassigned; (+)) [Example 55]        bucket B
 2  CNCC1Cc2cc(Cl)cc(-c3cc(Cl)ccc3Cl)c2O1 (single isomer, unassigned; (+))        bucket C
 3  COc1ccc(-c2cc(C(F)(F)F)cc3c2OC(CN)C3)cc1 (racemic)        bucket A
 4  Cc1cccc(C)c1-c1cccc2c1CC(CN)O2 (racemic) [Example 125]        bucket A
 5  CC1(CN)Cc2cc(Cl)cc(-c3cccs3)c2O1 (racemic)        bucket A
 6  CNCC1Cc2cc(C)cc(-c3ccccc3Cl)c2O1 (racemic)        bucket C
 7  Cc1cc2c(c(-c3ccc(Cl)cc3)c1)OC(CN)C2 (racemic)        bucket B
 8  NCC1Cc2cccc(-c3ccsc3)c2O1 (single isomer, unassigned; (+)) [Example 45]        bucket B
 9  NCC1Cc2cccc(-c3ccc(F)cc3F)c2O1 (racemic) [Example 146]        bucket B
10  NCC1Cc2cccc(-c3ccc(F)cc3)c2O1 (single isomer, unassigned; (+)) [Example 74]        bucket B
11  CNCC1Cc2cc(C(F)(F)F)cc(-c3cccc(Cl)c3Cl)c2O1 (racemic)        bucket A
12  CNCC1Cc2cccc(-c3ccccc3C)c2O1 (single isomer, unassigned; (+)) [Example 408]        bucket C
13  COc1ccccc1-c1cc(F)cc2c1OC(CN)C2 (racemic)        bucket C
14  NCC1Cc2cccc(-c3cc4ccccc4o3)c2O1 (racemic)        bucket A
